Origin of measurements: patent US20070142392A1

MIC E. coli values by entry
Tested on: E. coli
experiment: MIC values, E. coli (Tables 1-4)
Format: cell-based
observedProperty: MIC E. coli (µg/mL)

[[record]]
compound = "CO[C@H]1/C=C/O[C@@]2(C)Oc3c(C)c(O)c4c(=O)c(c5oc6ccc(F)cc6nc-5c4c3C2=O)NC(=O)/C(C)=C\\C=C\\[C@H](C)[C@H](O)[C@@H](C)[C@@H](O)[C@@H](C)[C@H](O)[C@@H]1C [Compound 138]"
target = "E. coli"
inequalitysign = ">"
measurement = 8

[[record]]
compound = "COC1C=COC2(C)Oc3c(C)c(O)c4c(=O)c(c5oc6cc(N7CC8C(N)C8C7)cc(O)c6nc-5c4c3C2=O)NC(=O)C(C)=CC=CC(C)C(O)C(C)C(O)C(C)C(O)C1C (stereo not shown) [Compound 20]"
target = "E. coli"
inequalitysign = ">"
measurement = 8

[[record]]
compound = "CO[C@H]1/C=C/O[C@@]2(C)Oc3c(C)c(O)c4c(=O)c(c5oc6cc(N7CCCN(C)CC7)cc(O)c6nc-5c4c3C2=O)NC(=O)/C(C)=C\\C=C\\[C@H](C)[C@H](O)[C@@H](C)[C@@H](O)[C@@H](C)[C@H](O)[C@@H]1C [Compound 124]"
target = "E. coli"
inequalitysign = "="
measurement = 4

[[record]]
compound = "CO[C@H]1/C=C/O[C@@]2(C)Oc3c(C)c(O)c4c(=O)c(c5oc6c(C)c(N7CCC7)cc(C)c6nc-5c4c3C2=O)NC(=O)/C(C)=C\\C=C\\[C@H](C)[C@H](O)[C@@H](C)[C@@H](O)[C@@H](C)[C@H](O)[C@@H]1C [Compound 126]"
target = "E. coli"
inequalitysign = "="
measurement = 8


====

MIC E. coli values by entry
System: E. coli
experiment: MIC values, E. coli (Tables 1-4)
Type: cell-based
observedProperty: MIC E. coli

[[record]]
compound = "CO[C@H]1/C=C/O[C@@]2(C)Oc3c(C)c(O)c4c(=O)c(c5oc6cc(N7CCC(NC(=O)OC(C)C)CC7)cc(O)c6nc-5c4c3C2=O)NC(=O)/C(C)=C\\C=C\\[C@H](C)[C@H](O)[C@@H](C)[C@@H](O)[C@@H](C)[C@H](OC(C)=O)[C@@H]1C [Compound 22]"
measurement = ">8 µg/mL"

[[record]]
compound = "CO[C@H]1/C=C/O[C@@]2(C)Oc3c(C)c(O)c4c(=O)c(c5oc6cc(N7CCC(NC(=O)OC(C)(C)C)CC7)cc(O)c6nc-5c4c3C2=O)NC(=O)/C(C)=C\\C=C\\[C@H](C)[C@H](O)[C@@H](C)[C@@H](O)[C@@H](C)[C@H](OC(C)=O)[C@@H]1C [Compound 48]"
measurement = ">8 µg/mL"


====

experiment: in vivo
protocolConditions: albino, guinea pig, ip, 5 mg/kg
observedProperty: concentration at 12 h

[[record]]
chemicalstructure = "C[C@H]1COc2c(N3CCN(C)CC3)c(F)cc3c(=O)c(C(=O)O)cn1c23"
measurement = "10 ng/mL"


====

Tested on: E. coli
experiment: MIC values, E. coli (Tables 1-4)
Format: cell-based
MIC E. coli values by entry
observedProperty: MIC E. coli

[[record]]
compound = "CO[C@H]1/C=C/O[C@@]2(C)Oc3c(C)c(O)c4c(=O)c(c5oc6c7c(cc(O)c6nc-5c4c3C2=O)N(C)CCN7C)NC(=O)/C(C)=C\\C=C\\[C@H](C)[C@H](O)[C@@H](C)[C@@H](O)[C@@H](C)[C@H](O)[C@@H]1C [Compound 81]"
measurement = "8 µg/mL"

[[record]]
compound = "COCCOC(=O)NC1CCN(c2cc(O)c3nc4c5c6c7c(C)c(O)c5c(=O)c(c-4oc3c2)NC(=O)/C(C)=C\\C=C\\[C@H](C)[C@H](O)[C@@H](C)[C@@H](O)[C@@H](C)[C@H](OC(C)=O)[C@H](C)[C@@H](OC)/C=C/O[C@@](C)(O7)C6=O)CC1 [Compound 41]"
measurement = ">8 µg/mL"

[[record]]
compound = "CCc1cc2nc3c4c5c6c(C)c(O)c4c(=O)c(c-3oc2cc1N1CCCCC1)NC(=O)/C(C)=C\\C=C\\[C@H](C)[C@H](O)[C@@H](C)[C@@H](O)[C@@H](C)[C@H](O)[C@H](C)[C@@H](OC)/C=C/O[C@@](C)(O6)C5=O [Compound 111]"
measurement = "1 µg/mL"

[[record]]
compound = "COc1c(N2CCCC2)cc(C)c2nc3c4c5c6c(C)c(O)c4c(=O)c(c-3oc12)NC(=O)/C(C)=C\\C=C\\[C@H](C)[C@H](O)[C@@H](C)[C@@H](O)[C@@H](C)[C@H](O)[C@H](C)[C@@H](OC)/C=C/O[C@@](C)(O6)C5=O [Compound 121]"
measurement = "8 µg/mL"


====

MIC E. coli values by entry
Tested on: E. coli
experiment: MIC values, E. coli (Tables 1-4)
Assay type: cell-based
observedProperty: MIC E. coli (µg/mL)

[[record]]
molecule = "CCNC(=O)NC1CCN(c2cc(O)c3nc4c5c6c7c(C)c(O)c5c(=O)c(c-4oc3c2)NC(=O)/C(C)=C\\C=C\\[C@H](C)[C@H](O)[C@@H](C)[C@@H](O)[C@@H](C)[C@H](OC(C)=O)[C@H](C)[C@@H](OC)/C=C/O[C@@](C)(O7)C6=O)CC1"
observedproperty = "MIC E. coli"
inequalitysign = "="
measurement = 8

[[record]]
molecule = "CO[C@H]1/C=C/O[C@@]2(C)Oc3c(C)c(O)c4c(=O)c(c5oc6cc(N7CCN(c8ncccn8)CC7)cc(O)c6nc-5c4c3C2=O)NC(=O)/C(C)=C\\C=C\\[C@H](C)[C@H](O)[C@@H](C)[C@@H](O)[C@@H](C)[C@H](O)[C@@H]1C"
observedproperty = "MIC E. coli"
inequalitysign = ">"
measurement = 8

[[record]]
molecule = "CO[C@H]1/C=C/O[C@@]2(C)Oc3c(C)c(O)c4c(=O)c(c5oc6c(F)cc(F)cc6nc-5c4c3C2=O)NC(=O)/C(C)=C\\C=C\\[C@H](C)[C@H](O)[C@@H](C)[C@@H](O)[C@@H](C)[C@H](O)[C@@H]1C"
observedproperty = "MIC E. coli"
inequalitysign = ">"
measurement = 8

[[record]]
molecule = "CCOC(=O)N1CCCC2CN(c3cc(O)c4nc5c6c7c8c(C)c(O)c6c(=O)c(c-5oc4c3)NC(=O)C(C)=CC=CC(C)C(O)C(C)C(O)C(C)C(OC(C)=O)C(C)C(OC)C=COC(C)(O8)C7=O)CC21 (stereo not drawn) [Compound 147]"
observedproperty = "MIC E. coli"
inequalitysign = ">"
measurement = 8

[[record]]
molecule = "CO[C@H]1/C=C/O[C@@]2(C)Oc3c(C)c(O)c4c(=O)c(c5oc6cc(N7CCC(N)CC7)cc(O)c6nc-5c4c3C2=O)NC(=O)/C(C)=C\\C=C\\[C@H](C)[C@H](O)[C@@H](C)[C@@H](O)[C@@H](C)[C@H](O)[C@@H]1C"
observedproperty = "MIC E. coli"
inequalitysign = ">"
measurement = 8

[[record]]
molecule = "CC[C@H]1CN(c2cc(O)c3nc4c5c6c7c(C)c(O)c5c(=O)c(c-4oc3c2)NC(=O)/C(C)=C\\C=C\\[C@H](C)[C@H](O)[C@@H](C)[C@@H](O)[C@@H](C)[C@H](O)[C@H](C)[C@@H](OC)/C=C/O[C@@](C)(O7)C6=O)C[C@H](C)N1"
observedproperty = "MIC E. coli"
inequalitysign = "="
measurement = 4

[[record]]
molecule = "CCOC(=O)NC1CCN(c2ccc3nc4c5c6c7c(C)c(O)c5c(=O)c(c-4n(C)c3c2)NC(=O)/C(C)=C\\C=C\\[C@H](C)[C@H](O)[C@@H](C)[C@@H](O)[C@@H](C)[C@H](O)[C@H](C)[C@@H](OC)/C=C/O[C@@](C)(O7)C6=O)CC1"
observedproperty = "MIC E. coli"
inequalitysign = "="
measurement = 8

[[record]]
molecule = "CO[C@H]1/C=C/O[C@@]2(C)Oc3c(C)c(O)c4c(=O)c(c5sc6cc(N7CCC(N(C)C)CC7)ccc6nc-5c4c3C2=O)NC(=O)/C(C)=C\\C=C\\[C@H](C)[C@H](O)[C@@H](C)[C@@H](O)[C@@H](C)[C@H](OC(C)=O)[C@@H]1C"
observedproperty = "MIC E. coli"
inequalitysign = "="
measurement = 4

[[record]]
molecule = "CO[C@H]1/C=C/O[C@@]2(C)Oc3c(C)c(O)c4c(=O)c(c5sc6cc(N7C[C@@H](C)N[C@@H](C)C7)ccc6nc-5c4c3C2=O)NC(=O)/C(C)=C\\C=C\\[C@H](C)[C@H](O)[C@@H](C)[C@@H](O)[C@@H](C)[C@H](OC(C)=O)[C@@H]1C"
observedproperty = "MIC E. coli"
inequalitysign = "="
measurement = 4

[[record]]
molecule = "CO[C@H]1/C=C/O[C@@]2(C)Oc3c(C)c(O)c4c(=O)c(c5oc6c(C)c(N7CCCC7)cc(C)c6nc-5c4c3C2=O)NC(=O)/C(C)=C\\C=C\\[C@H](C)[C@H](O)[C@@H](C)[C@@H](O)[C@@H](C)[C@H](O)[C@@H]1C"
observedproperty = "MIC E. coli"
inequalitysign = ">"
measurement = 8

[[record]]
molecule = "CO[C@H]1/C=C/O[C@@]2(C)Oc3c(C)c(O)c4c(=O)c(c5oc6c(F)c(N7CCN(CC(C)C)CC7)ccc6nc-5c4c3C2=O)NC(=O)/C(C)=C\\C=C\\[C@H](C)[C@H](O)[C@@H](C)[C@@H](O)[C@@H](C)[C@H](O)[C@@H]1C"
observedproperty = "MIC E. coli"
inequalitysign = "="
measurement = 8

[[record]]
molecule = "CO[C@H]1/C=C/O[C@@]2(C)Oc3c(C)c(O)c4c(=O)c(c5oc6cc(N7CC8CCC(C7)N8)cc(O)c6nc-5c4c3C2=O)NC(=O)/C(C)=C\\C=C\\[C@H](C)[C@H](O)[C@@H](C)[C@@H](O)[C@@H](C)[C@H](OC(C)=O)[C@@H]1C [Compound 145]"
observedproperty = "MIC E. coli"
inequalitysign = ">"
measurement = 8

[[record]]
molecule = "CCOC(=O)NC1CCN(c2ccc3nc4c5c6c7c(C)c(O)c5c(=O)c(c-4n(C)c3c2)NC(=O)/C(C)=C\\C=C\\[C@H](C)[C@H](O)[C@@H](C)[C@@H](O)[C@@H](C)[C@H](OC(C)=O)[C@H](C)[C@@H](OC)/C=C/O[C@@](C)(O7)C6=O)CC1"
observedproperty = "MIC E. coli"
inequalitysign = "="
measurement = 4

[[record]]
molecule = "CO[C@H]1/C=C/O[C@@]2(C)Oc3c(C)c(O)c4c(=O)c(c5oc6cc(N7CCC(NS(C)(=O)=O)CC7)cc(O)c6nc-5c4c3C2=O)NC(=O)/C(C)=C\\C=C\\[C@H](C)[C@H](O)[C@@H](C)[C@@H](O)[C@@H](C)[C@H](OC(C)=O)[C@@H]1C"
observedproperty = "MIC E. coli"
inequalitysign = ">"
measurement = 8

[[record]]
molecule = "CO[C@H]1/C=C/O[C@@]2(C)Oc3c(C)c(O)c4c(=O)c(c5oc6cc(N(C)CCC#N)ccc6nc-5c4c3C2=O)NC(=O)/C(C)=C\\C=C\\[C@H](C)[C@H](O)[C@@H](C)[C@@H](O)[C@@H](C)[C@H](O)[C@@H]1C"
observedproperty = "MIC E. coli"
inequalitysign = "="
measurement = 8

